- Experimental system: T1, rh-PD-1 recombinant protein (human, UniProt Q15116 25-170, limits assumed)
- T1 construct: also called human-derived PD-1; PD-1 protein
- T1 sequence (Q15116 25-170 limits assumed): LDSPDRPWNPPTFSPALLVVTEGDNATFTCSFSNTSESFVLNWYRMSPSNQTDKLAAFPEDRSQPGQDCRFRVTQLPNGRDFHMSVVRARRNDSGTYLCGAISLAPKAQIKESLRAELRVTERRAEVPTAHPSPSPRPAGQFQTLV
- Procedure details: ELISA on PD-1 protein
Measurement type: EC50 (nM)
Your answer is read as nM, so omit the unit and give the number.

Given the binder H10L10 (antibody, V domains shown, also called original antibody 10 (heavy chain 10, light chain 10)) VH: QVQLQQSGAELVRPGASVTLSCKASGYTFTDYEMHWVKQTPVHGLEWIGAIDPETGGAAYNQKFKGKAILTADKSSSTAYMELRSLTSEDSAVYYCTREGITTSVVTYYWYFDVWGTGTTVTVSS VL: DVLMTQTPLSLPVSLGDQASISCRSSQSIVHSNGNTYLEWYLQKPGQSPKLLIYKVSNRFSGVPDRFSGSGSGTDFTLRISRVEPEDLGVYYCFQGSHVPLTFGSGTKLEIK , what is its reported EC50? 0.426
